# assay remarks: cmc by surface tension method
# Type: physicochemical
# assay conditions: NMP without probe, solvent content 1%
# Description: Based on the above speculation, the inventors also observed the change in the cmc value at different addition amounts of the NMP solvent (without the probe) used in the CUR-NMP probe solution using the surface tension method. When the addition amount of NMP is less than 1000, the cmc value determined is affected to some extent, but the effect is small. […]
measurement type: cmc

smiles_repr=CN1CCCC1=O measurement_type=cmc observed_result="0.073 g/L"

----------
# assay remarks: Hansen solubility parameters (HSP), δ difference and HSP distance Ra
# assay conditions: total δ of solvent minus total δ of curcumin (CUR)
Each item that follows carries a reported δ difference.
measurement type: δ difference

compound="OCCCCCO [1,5-Pentanediol]" observed_result="4.118 (MPa)^1/2"
compound="CCCCCCCCO [n-Octanol]" observed_result="−2.022 (MPa)^1/2"
compound="C[S+](C)[O-] [Dimethyl sulfoxide]" observed_result="4.096 (MPa)^1/2"
compound="OCC(O)CO [Glycerol]" observed_result="13.583 (MPa)^1/2"
compound="CCCCCC [n-Hexane]" observed_result="−7.679 (MPa)^1/2"
compound="CCOCCOCCO [Diethylene glycol monoethyl ether (DGME), Diethylene glycol monoethyl ether]" observed_result="−0.382 (MPa)^1/2"
compound="CN1CCCC1=O [N-methylpyrrolidone (NMP), N-methylpyrrolidone]" observed_result="0.380 (MPa)^1/2"
compound="CCOC(=O)CO [Ethyl glycolate]" observed_result="2.225 (MPa)^1/2"
compound="OCCOc1ccccc1 [Ethylene glycol monophenyl ether]" observed_result="−0.207 (MPa)^1/2"
compound="CCN1CCCC1=O [N-ethylpyrrolidone (NEP), N-ethylpyrrolidone]" observed_result="0.159 (MPa)^1/2"

----------
Each item that follows carries a reported δ difference.
# assay remarks: Hansen solubility parameters (HSP), δ difference and HSP distance Ra
# assay conditions: total δ of solvent minus total δ of rhodamine B
measurement type: δ difference

smiles_repr=CN1CCCC1=O observed_result="−7.494 (MPa)^1/2"
smiles_repr=CCOCC observed_result="−14.967 (MPa)^1/2"
smiles_repr=CC(C)=O observed_result="−10.518 (MPa)^1/2"
smiles_repr=CCCCCCCCO observed_result="−9.896 (MPa)^1/2"
smiles_repr=CCOCCOCCO observed_result="−8.256 (MPa)^1/2"

----------
# assay remarks: cmc by surface tension method
# Type: physicochemical
# assay conditions: NMP without probe, solvent content 10%
measurement type: cmc (g/L)

molecule="CN1CCCC1=O [N-methylpyrrolidone (NMP), N-methylpyrrolidone]" result_units=g/L observed_result=0.131

----------
# assay remarks: cmc by surface tension method
# Type: physicochemical
# assay conditions: NMP without probe, solvent content 0 (v organic solvent/v water)
measurement type: cmc (g/L)

compound="CN1CCCC1=O [N-methylpyrrolidone (NMP), N-methylpyrrolidone]" result_units=g/L observed_result=0.067

----------
# assay remarks: cmc determination with probe solutions in NMP, fluorescence spectrophotometer
# Assay type: physicochemical
# assay conditions: Supreme Clean solution (directly prepared); probe dissolved in NMP; range read from fluorescence intensity-concentration curve
Each item that follows carries a reported cmc value range.
measurement type: cmc value range

compound="c1ccc(Nc2cccc3ccccc23)cc1 [NPN, N-phenyl-1-naphthylamine]" observed_result="0.02 to 0.05 g/L"
compound="CCN(CC)c1ccc2nc3c4ccccc4c(=O)cc-3oc2c1 [NR, Nile red]" observed_result="0.05 to 0.1 g/L"
compound="CCN(CC)c1ccc2c(-c3ccccc3C(=O)O)c3ccc(=[N+](CC)CC)cc-3oc2c1 [RhB, rhodamine B, reference compound]" observed_result="0.1 to 0.15 g/L"
compound="Cc1cc(=O)oc2c3c4c(cc12)CCCN4CCC3 [C480, coumarin 480]" observed_result="0.05 to 0.2 g/L"
compound="COc1cc(/C=C/C(=O)CC(=O)/C=C/c2ccc(O)c(OC)c2)ccc1O [CUR, curcumin]" observed_result="0.05 to 0.1 g/L"
compound="c1cc2ccc3cccc4ccc(c1)c2c34 [PYR, pyrene, reference compound]" observed_result="0.05 to 0.2 g/L"

----------
Each item that follows carries a reported Ra.
# assay remarks: Hansen solubility parameters (HSP), δ difference and HSP distance Ra
# assay conditions: HSP distance between solvent and curcumin (CUR)
measurement type: Ra

compound=OCC(O)CO measurement_type=Ra observed_result="17.614 (MPa)^1/2"
compound="C[S+](C)[O-] [Dimethyl sulfoxide]" measurement_type=Ra observed_result="13.383 (MPa)^1/2"
compound=CN1CCCC1=O measurement_type=Ra observed_result="10.950 (MPa)^1/2"
compound=CCOCCOCCO measurement_type=Ra observed_result="6.386 (MPa)^1/2"
compound=OCCCCCO measurement_type=Ra observed_result="6.580 (MPa)^1/2"
compound=CCCCCC measurement_type=Ra observed_result="15.204 (MPa)^1/2"
compound=OCCOc1ccccc1 measurement_type=Ra observed_result="2.858 (MPa)^1/2"
compound="CCOC(=O)CO [Ethyl glycolate]" measurement_type=Ra observed_result="14.383 (MPa)^1/2"
compound=CCCCCCCCO measurement_type=Ra observed_result="3.753 (MPa)^1/2"
